# procedure_text: Skin concentration after topical application (UPLC/mass spectrometry)
# Type: in vivo, C57Bl/6j wild type mice
# recorded_conditions: C57Bl/6j, mouse, topical; 42 mg ointment applied to dorsal skin (figure 3)
value_kind: half-life

COC(=O)c1sccc1S(=O)(=O)Nc1ccc(Nc2ccccc2)cc1OC = ~1.5 h

###

# procedure_text: Drug quantification in skin and blood of diseased mice (mass spectrometry)
# Format: in vivo, PPAR β/δ transgenic mice
# recorded_conditions: PPAR β/δ transgenic, mouse, whole blood, topical; 12 h after the last cream application, after 20 days; threshold of detection; read-out: concentration in blood
value_kind: concentration at 12 h

COC(=O)c1sccc1S(=O)(=O)Nc1ccc(Nc2ccccc2)cc1OC = < 25 nM

###

# procedure_text: Blood concentration after topical application (UPLC/mass spectrometry)
# Assay type: in vivo, C57Bl/6j wild type mice
# recorded_conditions: C57Bl/6j, mouse, whole blood, topical; healthy mice after 20 days of twice-daily treatment, n = 3
# Protocol: 50 µL of cardiac blood were diluted 1∶2 (v∶v) with milipore water and snap frozen immediately. Previously treated skin segments were shaved, tape-stripped three times to remove residual hair and non-absorbed ointment on the surface, and then snap frozen in liquid nitrogen. Frozen skin was ground and ten times the volume of methanol-water (1∶1 v/v) was added per weight unit of skin. A minimum of 20 mg of skin was used per each sample. Samples were homogenized with a Covaris S2 acoustic homogeniser. […]
value_kind: concentration at 20 days

O=C(NCCS(=O)(=O)c1ccc(C(F)(F)F)cn1)c1ccc(Cl)cc1 = 50.2 nM

###

# procedure_text: Drug quantification in skin and blood of diseased mice (mass spectrometry)
# Assay type: in vivo, PPAR β/δ transgenic mice
# recorded_conditions: PPAR β/δ transgenic, mouse, skin, topical; 12 h after the last cream application, after 20 days of treatment; read-out: concentration in skin tissue
value_kind: concentration at 12 h (ng/g)

COC(=O)c1sccc1S(=O)(=O)Nc1ccc(Nc2ccccc2)cc1OC = 48

###

# procedure_text: Drug quantification in skin and blood of diseased mice (mass spectrometry)
# Type: in vivo, PPAR β/δ transgenic mice
# recorded_conditions: PPAR β/δ transgenic, mouse, whole blood, topical; inflamed skin, 16 h after last cream application; read-out: concentration in blood at the end of the experiment
# Description: 50 µL of cardiac blood were diluted 1∶2 (v∶v) with milipore water and snap frozen immediately. Previously treated skin segments were shaved, tape-stripped three times to remove residual hair and non-absorbed ointment on the surface, and then snap frozen in liquid nitrogen. Frozen skin was ground and ten times the volume of methanol-water (1∶1 v/v) was added per weight unit of skin. A minimum of 20 mg of skin was used per each sample. Samples were homogenized with a Covaris S2 acoustic homogeniser. […]
value_kind: concentration at 16 h (nM)

O=C(NCCS(=O)(=O)c1ccc(C(F)(F)F)cn1)c1ccc(Cl)cc1 [GSK3787] = 445
